Where these numbers come from: ChEMBL document CHEMBL3352262

System: Raji
Test: Growth inhibition of human Raji cells after 96 hrs by MTT assay
Format: functional, cell-based
Please provide measured pEC50 for the entries that follow.
One number for each entry, as −log10 of the molar value.

CC(C)Cn1c(=O)n(C)c(=O)c2nc(CCCCO)c(Cc3cccc4ccccc34)nc21 | 6.55
Cc1n[nH]c(C)c1Cc1sc2c(c1C(=O)N1C[C@H](O)CO1)c(=O)n(C)c(=O)n2CC(C)C | 7.74
CC(C)Cn1c(=O)n(C)c(=O)c2nc(SCCCCO)c(Cc3cccc4ccccc34)nc21 | 7.43

Fill in pEC50 for each of the 8 compounds listed.
1. COCCCCCc1nc2c(=O)n(C)c(=O)n(CC(C)C)c2nc1Cc1cccc2ccccc12
2. CC(C)Cn1c(=O)n(C)c(=O)c2nc(CCCCCCO)c(Cc3cccc4ccccc34)nc21
3. CC(C)Cc1nn(C)c(=O)c2c(SCCCO)n(Cc3cccc4ccccc34)cc12
4. CC(C)Cn1c(=O)n(C)c(=O)c2nc(SCCCO)c(Cc3cccc4ccccc34)nc21
5. CC(C)Cn1c(=O)n(C)c(=O)c2nc([S+]([O-])CCCO)c(Cc3cccc4ccccc34)nc21 (configuration not stated)
6. CC(C)Cn1c(=O)n(C)c(=O)c2nc(S(=O)(=O)CCCO)c(Cc3cccc4ccccc34)nc21
7. CC(C)Cn1c(=O)n(C)c(=O)c2nc(CCCCCO)c(Cc3cccc4ccccc34)nc21
8. CC(C)Cn1c(=O)n(C)c(=O)c2c1nc(Cc1cccc3ccccc13)c(=O)n2CCCCCO

[out]
5.24
5.77
9.30
6.82
5.70
5.43
7.24
5.85

====

Please provide measured EC50 for the entries that follow.
Test system: Raji
Experiment: Growth inhibition of human Raji cells after 96 hrs by MTT assay
Type: functional, cell-based

Cc1n[nH]c(C)c1Cc1nc2c(nc1CCCCCO)c(=O)n(C)c(=O)n2CC(C)C | > 10 µM
CC(C)Cn1c(=O)n(C)c(=O)c2[nH]c(=O)c(Cc3cccc4ccccc34)nc21 | > 10 µM
CC(C)Cn1c(=O)n(C)c(=O)c2nc(-c3c(CCCO)nnn3C)c(Cc3cccc4ccccc34)nc21 | > 10 µM
CC(C)Cn1c(=O)n(C)c(=O)c2c1nc(Cc1cccc3ccccc13)c(=O)n2CCCCCCO | > 10 µM
CC(C)Cn1c(=O)n(C)c(=O)c2nc(-c3nnn(C)c3CCCO)c(Cc3cccc4ccccc34)nc21 | > 10 µM

Fill in EC50 for each of the 6 molecules listed.
1. CC(C)Cn1c(=O)n(C)c(=O)c2nc(-c3[nH]nnc3CCCO)c(Cc3cccc4ccccc34)nc21
2. CC(C)Cn1c(=O)n(C)c(=O)c2nc(C(=O)NCCCO)c(Cc3cccc4ccccc34)nc21
3. CC(C)Cn1c(=O)n(C)c(=O)c2nc(C(=O)N(C)CCCO)c(Cc3cccc4ccccc34)nc21
4. CC(C)Cn1c(=O)n(C)c(=O)c2nc(SCCO)c(Cc3cccc4ccccc34)nc21
5. CC(C)Cn1c(=O)n(C)c(=O)c2c1nc(Cc1cccc3ccccc13)c(=O)n2CCCCO
6. CC(C)Cn1c(=O)n(C)c(=O)c2nc(/C=C\CCCO)c(Cc3cccc4ccccc34)nc21

[out]
["6.02 µM", "> 10 µM", "> 10 µM", "2.85 µM", "0.15 µM", "0.07 µM"]
